Hey, just so you know, these numbers are from ChEMBL document CHEMBL1201862.

Tested on: HT-29
EXPERIMENT SUMMARY: NCI tumour cell line growth inhibition, 48 h
Active and inactive are the calls of the source. Rule as the data show it: active = GI50 up to about 1.1 µM and inactive = higher.
Reported values of GI50 for individual entries

| COMPOUND | GI50 |
| --- | --- |
| CCOc1ccccc1NC(=O)CC1Sc2ccccc2NC1=O (stereo unspecified) | 55.3 µM (inactive) |

stdin: Entry COC1(OC)C2(Cl)C(Cl)=C(Cl)C1(Cl)C1c3ccc(C(C)=O)c4cccc(c34)C12 (stereo unspecified) : reported GI50 = ?
stdout: 5.24 µM (inactive)

stdin: Entry O=C(CC1(O)C(=O)Nc2c(Cl)cccc21)c1ccccc1 (stereo unspecified) : reported GI50 = ?
stdout: 84.7 µM (inactive)

stdin: Entry COc1ccc(N2C(=O)C3c4[nH]c5ccc([N+](=O)[O-])cc5c4C4CCC(C(C)(C)C)CC4C3C2=O)cc1 (stereo unspecified) : reported GI50 = ?
stdout: 3.96 µM (inactive)
